The measured values listed here are drawn from ChEMBL document CHEMBL1806422.

test: Binding affinity to purified p-glycoprotein by fluorescence quenching assay
Items are presented alongside their recorded Kd.
Number only, in µM; omit the unit.

C/C=C(\C)C(=O)N[C@@H](c1ccccc1)[C@@H](O)C(=O)O[C@H]1C[C@@]2(O)[C@@H](OC(=O)c3cccc(N=[N+]=[N-])c3)[C@@H]3[C@]4(OC(C)=O)CO[C@@H]4C[C@H](OC(=O)CNC(=O)OC(C)(C)C)[C@@]3(C)C(=O)[C@H](O)C(=C1C)C2(C)C: 6.34

Consider the additional compound presented here.
Can you look up the measured Kd of C/C=C(\C)C(=O)N[C@@H](c1ccccc1)[C@@H](O)C(=O)O[C@H]1C[C@@]2(O)[C@@H](OC(=O)c3cccc(N=[N+]=[N-])c3)[C@@H]3[C@]4(OC(C)=O)CO[C@@H]4C[C@H](OC(=O)CN(C)C)[C@@]3(C)C(=O)[C@H](O)C(=C1C)C2(C)C for me? 2.38
